Conditions: in water, 298.16 K
measured.attribute: solubility (mole fraction)
A bare number is all that is needed in reply.

Look up solubility (mole fraction): Cn1c(=O)c2[nH]cnc2n(C)c1=O 0.00063

----------
Conditions: in water, 308.93 K
measured.attribute: solubility (mole fraction)
A bare number is all that is needed in reply.

Look up solubility (mole fraction): Cn1cnc2c1c(=O)[nH]c(=O)n2C 6.93e-05

----------
Conditions: in methanol, 318.13 K
measured.attribute: solubility (mole fraction)

Look up solubility (mole fraction): Cn1c(=O)c2[nH]cnc2n(C)c1=O 0.00298

----------
Settings: in ethyl acetate, 318.07 K
measured.attribute: solubility (mole fraction)
A bare number is all that is needed in reply.

Look up solubility (mole fraction): Cn1cnc2c1c(=O)[nH]c(=O)n2C 3.33e-05

----------
Conditions: in ethyl acetate, 297.99 K
measured.attribute: solubility (mole fraction)
A bare number is all that is needed in reply.

Look up solubility (mole fraction): Cn1cnc2c1c(=O)[nH]c(=O)n2C 1.59e-05

----------
Details: in water, 328.19 K
measured.attribute: solubility (mole fraction)

Look up solubility (mole fraction): Cn1c(=O)c2[nH]cnc2n(C)c1=O 0.00216

----------
Conditions: in methanol, 308.93 K
measured.attribute: solubility (mole fraction)
A bare number is all that is needed in reply.

Look up solubility (mole fraction): Cn1cnc2c1c(=O)[nH]c(=O)n2C 7e-05

----------
Conditions: in water, 298.1 K
measured.attribute: solubility (mole fraction)
A bare number is all that is needed in reply.

Look up solubility (mole fraction): Cn1cnc2c1c(=O)[nH]c(=O)n2C 4.73e-05

----------
Details: in ethanol, 288.01 K
measured.attribute: solubility (mole fraction)
A bare number is all that is needed in reply.

Look up solubility (mole fraction): Cn1c(=O)c2[nH]cnc2n(C)c1=O 0.0008

----------
Conditions: in ethanol, 297.95 K
measured.attribute: solubility (mole fraction)
A bare number is all that is needed in reply.

Look up solubility (mole fraction): Cn1c(=O)c2[nH]cnc2n(C)c1=O 0.00116

----------
Details: in ethyl acetate, 288.13 K
measured.attribute: solubility (mole fraction)

Look up solubility (mole fraction): Cn1cnc2c1c(=O)[nH]c(=O)n2C 1.04e-05

----------
Conditions: in methanol, 288.06 K
measured.attribute: solubility (mole fraction)

Look up solubility (mole fraction): Cn1c(=O)c2[nH]cnc2n(C)c1=O 0.00077

----------
Conditions: in n-propanol, 318.16 K
measured.attribute: solubility (mole fraction)

Look up solubility (mole fraction): Cn1cnc2c1c(=O)[nH]c(=O)n2C 6.37e-05

----------
Settings: in ethyl acetate, 288.02 K
measured.attribute: solubility (mole fraction)
A bare number is all that is needed in reply.

Look up solubility (mole fraction): Cn1c(=O)c2[nH]cnc2n(C)c1=O 0.000502

----------
Conditions: in acetone, 318.07 K
measured.attribute: solubility (mole fraction)
A bare number is all that is needed in reply.

Look up solubility (mole fraction): Cn1cnc2c1c(=O)[nH]c(=O)n2C 4.57e-05

----------
Conditions: in water, 288.06 K
measured.attribute: solubility (mole fraction)

Look up solubility (mole fraction): Cn1c(=O)c2[nH]cnc2n(C)c1=O 0.000325

----------
Conditions: in ethanol, 328.09 K
measured.attribute: solubility (mole fraction)
A bare number is all that is needed in reply.

Look up solubility (mole fraction): Cn1c(=O)c2[nH]cnc2n(C)c1=O 0.00319
